Reported Ki is given for each of the following compounds.
# Experimental Details: Displacement of [3H]diprenorphine from human kappa/mu opioid chimera 3 receptor
Express the result in nM but write the number alone.

Here's what some known entries look like.
COc1cc(CC(=O)N(C)[C@H](CN2CCCC2)c2ccccc2)c(S(=O)(=O)N2CCN(C)CC2)cc1OC : 4.8
CN(C(=O)Cc1cc2c(cc1S(=O)(=O)N(C)Cc1ccccc1)OCO2)[C@H](CN1CCCC1)c1ccccc1 : 5.5
COc1cc(CC(=O)N(C)[C@H](CN2CC[C@H](O)C2)c2ccccc2)c(S(=O)(=O)N2CCCC2)cc1OC : 38

Now for the compound whose Ki we want.
GET /value?item= CN(C(=O)Cc1cc2c(cc1S(=O)(=O)N(C)C)OCO2)[C@H](CN1CC[C@H](O)C1)c1ccccc1 &field=Ki returns 4.5
